- System: Phakopsora pachyrhizi
- protocol-notes: Example D: preventative activity against Phakopsora pachyrhizi on soybean (whole plants sprayed, leaf disks inoculated)
- Assay type: in vivo
- condition: Phakopsora pachyrhizi, foliar, applied alone, 900 g/ha; read-out: Observed Activity (% of untreated)
# inhibition at 900 g/ha annotations
Write it as a number; the unit % goes unstated.

Solved entries:
- compound: "N#Cc1c(Cl)c(Cl)c(Cl)c(C#N)c1Cl [chlorothalonil, reference compound]"
  measured-metric: "inhibition at 900 g/ha"
  result-number: 7
- compound: "CC(Cc1ccc(C(C)(C)C)cc1)CN1CCCCC1 (stereo not shown) [Fenpropidin, reference compound]"
  measured-metric: "inhibition at 900 g/ha"
  result-number: 82
- compound: "CC(Cc1ccc(C(C)(C)C)cc1)CN1C[C@@H](C)O[C@@H](C)C1 (stereo partly shown) [Fenpropimorph, reference compound]"
  measured-metric: "inhibition at 900 g/ha"
  result-number: 76

# input I have this compound here, O=C1c2ccccc2C(=O)N1SC(Cl)(Cl)Cl [folpet, reference compound] , and I need its recorded inhibition at 900 g/ha.
# output 13
